Source listed as patent US20170122958A1.

Study System: Brd2(1) (Homo sapiens, UniProt P25440)
Construct: Plasmids of the eight single BET bromodomain constructs Brd2(1), Brd2(2), Brd3(1), Brd3(2); His6 (N); made in house; host or cells: E. coli BL21(DE3)
Sequence (P25440 74-180 limits assumed): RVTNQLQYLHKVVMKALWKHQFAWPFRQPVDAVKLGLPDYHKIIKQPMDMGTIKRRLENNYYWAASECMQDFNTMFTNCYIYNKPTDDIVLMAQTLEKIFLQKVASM
Assay Procedure: ITC reverse titration of protein into compound
Assay type: binding
Measurement Type: pKd
Just so you know, pKd here is -log10 of the concentration in molar units; reply with that number alone.

Past entries and their recorded results:
[
  {
    "Molecule": "COC(=O)[C@H](CC1CC1)[C@@H]1N=C(c2ccc(Cl)cc2)c2cc(OC)ccc2-n2c(C)nnc21 (racemic)",
    "Study System": "Brd2(1) (Homo sapiens, UniProt P25440)",
    "Measurement Type": "pKd",
    "Test Value": 5.37
  },
  {
    "Molecule": "CCC[C@@H](C(=O)OC)[C@@H]1N=C(c2ccc(Cl)cc2)c2cc(OC)ccc2-n2c(C)nnc21 (racemic)",
    "Study System": "Brd2(1) (Homo sapiens, UniProt P25440)",
    "Measurement Type": "pKd",
    "Test Value": 5.23
  },
  {
    "Molecule": "COC(=O)[C@H](C)[C@@H]1N=C(c2ccc(Cl)cc2)c2cc(OC)ccc2-n2c(C)nnc21 (racemic)",
    "Study System": "Brd2(1) (Homo sapiens, UniProt P25440)",
    "Measurement Type": "pKd",
    "Test Value": 5.83
  }
]

Shift focus to the following entry.
**Q:** May I ask what pKd has been recorded for CC[C@@H](C(=O)OC)[C@@H]1N=C(c2ccc(Cl)cc2)c2cc(OC)ccc2-n2c(C)nnc21 (racemic) ?
**A:** 5.75

---

Study System: Brd2(1)*(Trp097Phe) (Homo sapiens, UniProt P25440, W97F)
Construct: Plasmids of the eight single BET bromodomain constructs Brd2(1), Brd2(2), Brd3(1), Brd3(2); His6 (N); made in house; host or cells: E. coli BL21(DE3)
Sequence (P25440 74-180 W97F limits assumed): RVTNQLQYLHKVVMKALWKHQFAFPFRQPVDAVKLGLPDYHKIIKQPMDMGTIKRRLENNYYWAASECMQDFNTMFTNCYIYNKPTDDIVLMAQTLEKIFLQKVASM
Assay Procedure: DSF thermal shift
Format: binding
Particulars: mutant
Measurement Type: ΔTm Brd2(1)*(Tryp097-Phe) (K)
Just the number in K, nothing appended.

Past entries and their recorded results:
[
  {
    "Compound": "COc1ccccc1S(=O)(=O)Nc1ccc2c(c1)CN(C)C(=O)N2 [PFI-1, reference compound]",
    "Study System": "Brd2(1)*(Trp097Phe) (Homo sapiens, UniProt P25440, W97F)",
    "ΔTm Brd2(1)*(Tryp097-Phe) / K": 2.6
  },
  {
    "Compound": "COC(=O)CC1N=C(c2cc(C)ccc2C)c2cc(OC)ccc2-n2c(C)nnc21 (racemic)",
    "Study System": "Brd2(1)*(Trp097Phe) (Homo sapiens, UniProt P25440, W97F)",
    "ΔTm Brd2(1)*(Tryp097-Phe) / K": 0.1
  },
  {
    "Compound": "COC(=O)CC1N=C(c2cccc3[nH]ccc23)c2cc(OC)ccc2-n2c(C)nnc21 (stereo not drawn)",
    "Study System": "Brd2(1)*(Trp097Phe) (Homo sapiens, UniProt P25440, W97F)",
    "ΔTm Brd2(1)*(Tryp097-Phe) / K": 1.9
  },
  {
    "Compound": "COC(=O)CC1N=C(c2ccc(Cl)cc2C)c2cc(OC)ccc2-n2c(C)nnc21 (racemic)",
    "Study System": "Brd2(1)*(Trp097Phe) (Homo sapiens, UniProt P25440, W97F)",
    "ΔTm Brd2(1)*(Tryp097-Phe) / K": 1.4
  },
  {
    "Compound": "CN1Cc2cc(NS(=O)(=O)c3ccccc3-c3ccccc3)ccc2NC1=O",
    "Study System": "Brd2(1)*(Trp097Phe) (Homo sapiens, UniProt P25440, W97F)",
    "ΔTm Brd2(1)*(Tryp097-Phe) / K": 1.8
  },
  {
    "Compound": "CN1Cc2cc(NS(=O)(=O)c3c(Cl)cccc3Cl)ccc2NC1=O",
    "Study System": "Brd2(1)*(Trp097Phe) (Homo sapiens, UniProt P25440, W97F)",
    "ΔTm Brd2(1)*(Tryp097-Phe) / K": 0.2
  }
]

**Q:** May I ask what ΔTm Brd2(1)*(Tryp097-Phe) has been recorded for COC(=O)CC1N=C(c2cc(Cl)ccc2Cl)c2cc(OC)ccc2-n2c(C)nnc21 (stereo not drawn) ?
**A:** 0.0

**Q:** Next: COC(=O)CC1N=C(c2ccc(Cl)c(C)c2)c2cc(OC)ccc2-n2c(C)nnc21 (racemic)
**A:** −0.1

**Q:** Next: `Cc1cc(C)c(S(=O)(=O)Nc2ccc3c(c2)CN(C)C(=O)N3)c(C)c1`
**A:** 0.7
